# credit: PubChem BioAssay (NCI)

system: HL-60(TB) leukemia; assay: NCI tumour cell line growth inhibition, 48 h
// reported TGI for each item listed

Worked examples follow.
Compound | TGI
CCO/C(O)=C(/C(=N)N1CCCC1)C(=O)Nc1cccc(C(F)(F)F)c1 | > 100 µM
O=C1c2cccc3cccc(c23)C(=O)N1CCCNOCCONCCCN1C(=O)c2cccc3cccc(c23)C1=O | > 100 µM
NCCCCNCCCNC(=O)c1nc(-c2csc(CCN)n2)sc1Cl | > 100 µM
O=c1oc2ccc(Cl)cc2cc1-c1cn2cc(Cl)ccc2n1 | > 100 µM
COc1cc(/C=C2/N=C(c3ccccc3)N(C3=NNC4(C(=O)N3)c3ccccc3-c3ccccc34)NC2=O)ccc1O | > 150 µg/mL

[in] Requested read-out: TGI. Entry: CC(=O)OC1[C@H]2c3cc4c(cc3CN3CCC(=C[C@@H]1O)C23)OCO4 (some centres undefined)
[out] > 100 µM

[in] Which TGI value is on record for COc1ccc(C2C(C#N)=C(S)N(C3OC(CO)C(O)C(O)C3O)C(c3ccccc3)=C2C(C)=O)cc1 (centres undefined) ?
[out] > 100 µM

[in] Can you look up the measured TGI of "Nc1nc(CCC(=O)Nc2cccc(C(F)(F)F)c2)cc(-c2ccc3ccccc3c2)n1" for me?
[out] > 100 µM

[in] Can you share its TGI? I mean this compound: O=C1Nc2cccc3cc(NCC(O)CCl)cc1c23 (centres undefined)
[out] > 100 µM

[in] Endpoint output: TGI of "CCN(CC)c1ccc2c(c1)Nc1cc(=C(C#N)C#N)c3ccccc3c1=N2" . Value?
[out] > 100 µM

[in] Any idea what TGI was measured for COC1CC(OC(=O)c2ccccc2)C(OC(=O)c2ccccc2)C(C)O1 (centres undefined) ?
[out] > 100 µM

###

system: HT29 colon; experiment: NCI tumour cell line growth inhibition, 48 h
Assay Readout: TGI

Guide cases for TGI, answers given:
Molecule | Assay Readout | Value Reported
O=C(CNc1ccc(Cl)cc1Cl)NC1C=Cc2ccc(S(=O)(=O)Nc3ccc(Cl)cc3Cl)cc2C1=O (stereo unspecified) | TGI | > 100 µM
O=C1CC(=O)OC(c2ccc([N+](=O)[O-])cc2)O1 | TGI | 3.73 µM
CC(C)N(C)C(=O)C12C3C4C1C1C2C3C41C#N (stereo unspecified) | TGI | > 100 µM
Cn1c(=O)c2c(ncn2CN2CCN(Cn3cnc4c3c(=O)n(C)c(=O)n4C)CC2)n(C)c1=O | TGI | > 100 µM
C[C-](O)O.O/C(=C\[C-](O)c1ccccc1)c1ccccc1.O/C(=C\[C-](O)c1ccccc1)c1ccccc1.[Nd+3] (stereo unspecified) | TGI | 22.5 µM
CCOc1c(Cl)cc(CNC(C)C(O)c2ccccc2)cc1OC (stereo unspecified) | TGI | 45.5 µM
Cc1ccc(C(=O)/C(C#N)=C/Nc2c(C)n(C)n(-c3ccccc3)c2=O)cc1 | TGI | > 100 µM
COc1ccc(C2C(C#N)=C(S)N(C3OC(CO)C(O)C(O)C3O)C(c3ccccc3)=C2C(C)=O)cc1 (stereo unspecified) | TGI | > 100 µM

[in] Need TGI, item "Cc1ccc(-c2n[nH]c(=O)[nH]2)cc1[N+](=O)[O-]"
[out] > 100 µM

[in] What measured TGI goes with "COc1cc(/C=N/Nc2nnc3c4ccccc4c4ncccc4c3n2)cc(OC)c1OC" ?
[out] 5.4 µM

[in] Need TGI of "Cc1cc(-c2nnc3n2CCCCC3)c(C)n1-c1ccc(Cl)c(Cl)c1" , thanks.
[out] 38.1 µM

[in] Look at this molecule and give its reported TGI. "COC(=O)CCCCCN=Cc1c(O)c(O)c(C(C)C)c2cc(C)c(-c3c(C)cc4c(C(C)C)c(O)c(O)c(C=NCCCCCC(=O)OC)c4c3O)c(O)c12"
[out] > 32.5 µM

[in] Look up TGI for this molecule: "Oc1ccc(CCc2cc(O)cc(O)c2)cc1"
[out] > 100 µM

[in] Entry "Fc1cccc(Cl)c1/C=N\N=C1c2ccccc2-c2ccccc21" has what TGI?
[out] > 100 µM

[in] Dear colleague, I am looking for the recorded TGI of the following molecule: "CCOC(=O)C(=O)Nc1c(C(C)C)cccc1C(C)C"
[out] > 100 µM

[in] Please look up its TGI: CC(=O)OC1[C@H]2c3cc4c(cc3CN3CCC(=C[C@@H]1O)C23)OCO4 (stereo partly specified)
[out] > 100 µM

###

test system: SN12C renal; experiment: NCI tumour cell line growth inhibition, 48 h
Assay Readout: TGI

[in] Request: TGI, test system SN12C renal, entry "COc1ccc(Cn2c(Cl)c(/C=C3/C(=O)Nc4ccccc43)c3cc(OC)c(C)cc32)cc1"
[out] > 100 µM

[in] For the record CN1C(=O)C(Cl)(C(Cl)(Cl)S(=O)(=O)O)C(=O)c2ccccc21 (centres undefined) , what value of TGI is listed for SN12C renal?
[out] > 100 µM

[in] Notebook entry, SN12C renal assay: TGI of "CC(C)CNC(=O)Cn1c(-c2ccccc2)cc2ccccc21" = ?
[out] > 100 µM

[in] Lookup: TGI / SN12C renal / "Cc1c2ccc(N(C)c3ccnc(Nc4cccc(S(N)(=O)=O)c4)n3)cc2nn1C"
[out] > 25 µM

###

Below, each entry is listed alongside its reported TGI.
test system: SF-295 CNS; test: NCI tumour cell line growth inhibition, 48 h

Please review the entries below; each comes with its answer.
Entry Smiles | Assayed Target | TGI
O=C1CCCN1CC#CCN1CCCC1 | SF-295 CNS | > 100 µM
Cc1ccc(S(=O)(=O)N=Nc2c(O)[nH]c3c(Cl)cc(Cl)cc23)cc1 | SF-295 CNS | > 100 µM
CN=C1SC(=Nc2ccc(N(C)C)cc2)N1C | SF-295 CNS | > 100 µM

[in] Return reported TGI; argument: "CC(C)[C@H]1C(=O)N[C@@H](CCCN=C(N)N)C(=O)NCC(=O)N[C@@H](CC(=O)O)C(=O)N[C@H](Cc2ccccc2)C(=O)N1C"
[out] > 100 µM

[in] Value lookup for TGI; key = "O=C(OC[C@H]1O[C@@H](OC(=O)c2cc(O)c(O)c(O)c2)[C@H](OC(=O)c2cc(O)c(O)c(O)c2)[C@@H](OC(=O)c2cc(O)c(O)c(O)c2)[C@@H]1OC(=O)c1cc(O)c(O)c(O)c1)c1cc(O)c(O)c(O)c1"
[out] 20.3 µM

###

Parameter TGI: see the listing below.
test system: SF-295 CNS; experiment: NCI tumour cell line growth inhibition, 48 h

Some entries whose results are on file:
Compound | Assay Readout | Value Reported
COc1ccc(OC)c2c1C1CCC(=O)N1CN2C(C)=O (stereo not given) | TGI | > 100 µM
Cn1cc(CNCC2CCN(c3ncc(C(=O)NO)cn3)CC2)c2ccccc21 | TGI | 0.188 µM
Cc1ccc(N=Nc2c(C)c(C#N)c(=S)n(C3OC(CO)C(O)C(O)C3O)c2-c2ccccc2)cc1 (stereo not given) | TGI | 69.5 µM
Cc1cc(=O)oc2cc(O)ccc12 | TGI | > 100 µM
COc1cc(S(=O)(=O)Nc2ccc(C3=NNC(c4ccccc4)C3)cc2)ccc1F (stereo not given) | TGI | > 100 µM
Clc1ccc(N=c2oc3ccccc3cc2-c2nc3ccccc3[nH]2)c(Cl)c1 | TGI | > 100 µM

[in] Name the recorded TGI for "C=CC[C@@]1(C(=O)OC)[C@H](Sc2ccccc2)C1(C)C" .
[out] > 100 µM

[in] Reported TGI for COc1ccc(/C=C2\N=C(c3ccccc3)N(C3Nc4cc5c(cc4S3)NC(N3C(=O)/C(=C/c4ccc(OC)cc4)N=C3c3ccccc3)S5)C2=O)cc1 (stereo not given) : what is it?
[out] > 100 µM

[in] Name the recorded TGI for "COc1ccc(-c2cn[nH]c2-c2cc(OC)c3c(c2)OCCO3)cc1" .
[out] 12.1 µM

[in] Need TGI, item "CC(C)(C)OC[C@H](O)CC#N"
[out] > 100 µM

###

system: SNB-19 CNS; test: NCI tumour cell line growth inhibition, 48 h
Assay Readout: TGI

Look over these answered cases.
Molecule | TGI
C[N+](C)(C)c1ncnc2c1ncn2C1CCCCO1 (stereo not drawn) | > 100 µM
COC(=O)c1nc(N)[nH]c(=O)c1CCCCCc1c(C(=O)OC)nc(N)[nH]c1=O | > 50 µM

[in] // TGI lookup, key: "C[n+]1c2ccccc2c(C(=O)Nc2ccc(S(=O)(=O)N=C(N)N)cc2)c2ccccc21"
[out] > 100 µM

###

system: PC-3 prostate; test: NCI tumour cell line growth inhibition, 48 h
Assay Readout: TGI

// known answers, use as guide
Entry Smiles | Value Reported
Cc1ccc(-c2n[nH]c(=O)[nH]2)cc1[N+](=O)[O-] | > 100 µM
CC(=O)c1cc2ccccc2n(O)c1=N | > 100 µM

Now, please, on to the next molecule.
[in] What does the data say about its TGI? Entry: "CSc1ccc(/C=C2\C=C(CC(=O)NCc3ccc(C(=O)c4ccccc4)cc3)c3cc(F)ccc32)cc1"
[out] 13.1 µM
